For each entry below, report its IC50 value.
# Assayed system: E. coli TrxR (Escherichia coli (strain K12), UniProt P0A9P4)
# Sequence (P0A9P4 2-321 limits assumed): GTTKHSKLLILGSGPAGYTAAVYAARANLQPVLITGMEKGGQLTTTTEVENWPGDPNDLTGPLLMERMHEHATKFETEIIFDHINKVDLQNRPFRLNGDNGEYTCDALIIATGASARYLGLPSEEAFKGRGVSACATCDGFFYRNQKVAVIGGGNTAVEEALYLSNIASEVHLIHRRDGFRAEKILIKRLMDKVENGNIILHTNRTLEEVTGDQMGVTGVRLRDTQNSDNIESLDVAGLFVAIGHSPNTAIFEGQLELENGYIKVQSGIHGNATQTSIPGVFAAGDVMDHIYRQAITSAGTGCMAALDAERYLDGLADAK
# Assay name: Measurement of IC50 of ebselen derivates for E. coli TrxR (DTNB assay)
# Assay type: biochemical
Answers are plain numbers, in µM.

O=C(O)c1ccccc1-n1[se]c2ccccc2c1=O
7.5

Now turn to the next compound.
Please tell me: IC50 of O=C(O)c1ccc(-n2[se]c3ccccc3c2=O)cc1 , system E. coli TrxR (Escherichia coli (strain K12), UniProt P0A9P4)? 15

---

# Assayed system: E. coli TrxR (Escherichia coli (strain K12), UniProt P0A9P4)
# Assay name: Inhibition of E. coli TrxR reduction of Trx, DTNB coupled assay (Lineweaver-Burk)
# Format: biochemical
# Reported conditions: read-out: Ki (competitive inhibitor of Trx reduction by E. coli TrxR), from Lineweaver-Burk slopes
Measured parameter: pKi
Answers are plain numbers, as −log10 of the molar value.

Look up pKi for this molecule: O=C(Nc1ccccc1)c1ccccc1[Se][Se]c1ccccc1C(=O)Nc1ccccc1 [ebselen diselenide] 6.34

---

# Assayed system: E. coli TrxR (Escherichia coli (strain K12))
# Assay name: Measurement of Ki of ebselen derivates for E. coli TrxR (Dixon plot, DTNB assay)
# Format: biochemical
# Reported conditions: 6 nM TrxR, Trx 1, 2 or 4 μM, Dixon plot; read-out: Ki for E. coli TrxR
Measured parameter: pKi
Numbers only, as −log10 of the molar value.

O=c1c2ccccc2[se]n1-c1ncccc1[N+](=O)[O-]
6.60

Now turn to the next compound.
Look up pKi for this compound: O=c1c2ccccc2[se]n1CCCn1[se]c2ccccc2c1=O 7.40

---

For each entry below, report its Ki value.
# Assayed system: E. coli TrxR (Escherichia coli (strain K12))
# Assay name: Inhibition of E. coli TrxR reduction of Trx, DTNB coupled assay (Lineweaver-Burk)
# Assay type: biochemical
# Reported conditions: Ki (competitive inhibitor of Trx reduction by E. coli TrxR), from Lineweaver-Burk slopes
Give bare numbers, in nM.

O=C(Nc1ccccc1)c1ccccc1[Se][Se]c1ccccc1C(=O)Nc1ccccc1 [ebselen diselenide]
460

Now turn to the next molecule.
Look up Ki for this molecule: O=c1c2ccccc2[se]n1-c1ccccc1 150
